Target: Phosphatidylinositol 4,5-bisphosphate 3-kinase catalytic subunit beta isoform (Homo sapiens)
Sequence (P42338 whole entry, canonical isoform): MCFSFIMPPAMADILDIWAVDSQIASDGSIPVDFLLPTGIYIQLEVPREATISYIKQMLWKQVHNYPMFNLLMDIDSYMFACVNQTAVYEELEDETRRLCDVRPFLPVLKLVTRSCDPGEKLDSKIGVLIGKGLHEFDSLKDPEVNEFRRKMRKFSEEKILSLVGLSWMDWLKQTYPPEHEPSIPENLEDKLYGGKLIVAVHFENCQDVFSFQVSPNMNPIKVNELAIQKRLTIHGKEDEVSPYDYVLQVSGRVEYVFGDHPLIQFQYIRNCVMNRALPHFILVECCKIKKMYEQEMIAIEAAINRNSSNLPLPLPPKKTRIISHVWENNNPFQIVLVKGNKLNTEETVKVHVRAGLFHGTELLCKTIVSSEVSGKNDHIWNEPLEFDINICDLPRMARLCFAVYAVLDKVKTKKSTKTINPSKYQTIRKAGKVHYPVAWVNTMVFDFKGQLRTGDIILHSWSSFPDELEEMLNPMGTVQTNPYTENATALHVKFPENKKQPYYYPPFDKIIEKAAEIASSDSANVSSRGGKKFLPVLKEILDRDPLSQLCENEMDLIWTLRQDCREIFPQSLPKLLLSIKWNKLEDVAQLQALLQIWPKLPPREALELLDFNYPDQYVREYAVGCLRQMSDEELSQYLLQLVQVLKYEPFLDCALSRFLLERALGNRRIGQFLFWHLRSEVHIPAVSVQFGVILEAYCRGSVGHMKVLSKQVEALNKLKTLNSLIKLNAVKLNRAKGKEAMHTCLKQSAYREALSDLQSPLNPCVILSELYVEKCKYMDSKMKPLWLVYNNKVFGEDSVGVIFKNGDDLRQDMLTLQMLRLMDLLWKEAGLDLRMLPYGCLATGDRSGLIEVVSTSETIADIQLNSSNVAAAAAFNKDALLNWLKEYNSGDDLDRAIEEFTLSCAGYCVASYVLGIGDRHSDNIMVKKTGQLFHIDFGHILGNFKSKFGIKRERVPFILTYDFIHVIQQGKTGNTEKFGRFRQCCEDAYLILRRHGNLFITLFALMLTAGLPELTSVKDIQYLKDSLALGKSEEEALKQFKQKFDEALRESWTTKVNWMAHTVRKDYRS
Assay: Inhibition of PI3Kbeta (unknown origin) expressed in baculovirus expression system by kinase-glo luminescence assay
Provide the reported log10 of IC50 of each item.
Hello, just confirming the data are log10 of IC50 with units of nM.

NC(=O)CNC(=O)[C@@H]1CCCN(c2nc(N3CCOCC3)nc(-n3c(C(F)F)nc4ccccc43)n2)C1    2.22

Give one value of log10 of IC50 per listed molecule.
1. NC(=O)CNC(=O)[C@H]1CCCN(c2nc(N3CCOCC3)nc(-n3c(C(F)F)nc4ccccc43)n2)C1
2. NC(=O)[C@H](Cc1ccccc1)NC(=O)C1CCN(c2nc(N3CCOCC3)nc(-n3c(C(F)F)nc4ccccc43)n2)CC1
3. O=C(O)[C@H]1CCCN(c2nc(N3CCOCC3)nc(-n3c(C(F)F)nc4ccccc43)n2)C1
4. CC(C)[C@H](NC(=O)C1CCN(c2nc(N3CCOCC3)nc(-n3c(C(F)F)nc4ccccc43)n2)CC1)C(N)=O
5. NC(=O)CNC(=O)C1CCN(c2nc(N3CCOCC3)nc(-n3c(C(F)F)nc4ccccc43)n2)CC1
6. NC(=O)[C@H](Cc1ccccc1)NC(=O)[C@@H]1CCCN(c2nc(N3CCOCC3)nc(-n3c(C(F)F)nc4ccccc43)n2)C1
7. O=C(C[C@@H]1CCCN1)N1CCN(c2nc(N3CCOCC3)nc(-n3c(C(F)F)nc4ccccc43)n2)CC1
8. O=C([C@H]1CCCCN1)N1CCN(c2nc(N3CCOCC3)nc(-n3c(C(F)F)nc4ccccc43)n2)CC1

[reply]
1.38
2.71
2.33
2.78
2.52
3.24
2.16
2.89

====

Target: Phosphatidylinositol 4,5-bisphosphate 3-kinase catalytic subunit alpha isoform (Homo sapiens, UniProt P42336)
Sequence (P42336 whole entry, canonical isoform): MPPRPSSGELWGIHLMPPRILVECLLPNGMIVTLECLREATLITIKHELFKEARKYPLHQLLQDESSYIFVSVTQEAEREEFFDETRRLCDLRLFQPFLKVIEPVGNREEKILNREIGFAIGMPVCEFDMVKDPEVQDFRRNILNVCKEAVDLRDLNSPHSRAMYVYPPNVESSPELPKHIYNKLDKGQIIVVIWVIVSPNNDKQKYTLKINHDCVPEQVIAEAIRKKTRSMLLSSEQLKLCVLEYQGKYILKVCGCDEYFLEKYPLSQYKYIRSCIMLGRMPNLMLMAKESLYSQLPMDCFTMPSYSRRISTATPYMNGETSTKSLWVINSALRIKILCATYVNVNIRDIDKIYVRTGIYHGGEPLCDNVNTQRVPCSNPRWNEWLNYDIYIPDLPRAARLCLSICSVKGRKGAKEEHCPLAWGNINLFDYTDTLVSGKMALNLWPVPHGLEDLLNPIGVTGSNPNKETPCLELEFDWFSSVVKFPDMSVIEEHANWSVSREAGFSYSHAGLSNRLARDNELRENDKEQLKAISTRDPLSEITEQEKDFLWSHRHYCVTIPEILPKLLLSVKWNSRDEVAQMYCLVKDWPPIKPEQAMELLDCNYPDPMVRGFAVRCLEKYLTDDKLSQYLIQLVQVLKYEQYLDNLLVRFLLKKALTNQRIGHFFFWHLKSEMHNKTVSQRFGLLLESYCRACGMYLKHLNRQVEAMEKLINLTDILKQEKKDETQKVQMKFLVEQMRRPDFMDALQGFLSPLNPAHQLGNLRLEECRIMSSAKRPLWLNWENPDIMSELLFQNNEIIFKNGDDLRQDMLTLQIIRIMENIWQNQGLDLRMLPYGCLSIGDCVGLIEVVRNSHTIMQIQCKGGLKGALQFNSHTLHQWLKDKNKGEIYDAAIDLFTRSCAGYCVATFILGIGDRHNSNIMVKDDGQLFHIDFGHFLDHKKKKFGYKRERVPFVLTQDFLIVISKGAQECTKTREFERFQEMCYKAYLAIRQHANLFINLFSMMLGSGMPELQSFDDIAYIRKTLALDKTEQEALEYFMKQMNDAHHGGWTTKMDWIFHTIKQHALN
Assay: Inhibition of PI3Kalpha (unknown origin) expressed in baculovirus expression system by kinase-glo luminescence assay
Friendly reminder: IC50 below 900 nM is Satisfied, at or above is Not satisfied.

CC(C)[C@H](NC(=O)C1CCN(c2nc(N3CCOCC3)nc(-n3c(C(F)F)nc4ccccc43)n2)CC1)C(N)=O    Satisfied
NC(=O)[C@H](Cc1ccccc1)NC(=O)C1CCN(c2nc(N3CCOCC3)nc(-n3c(C(F)F)nc4ccccc43)n2)CC1    Satisfied

[ask] Dear reviewer, please state whether NC(=O)CNC(=O)[C@H]1CCCN(c2nc(N3CCOCC3)nc(-n3c(C(F)F)nc4ccccc43)n2)C1 has IC50 strictly beneath 900 nM.
[reply] Satisfied

[ask] Dear reviewer, please state whether O=C(CN1CCN(c2nc(N3CCOCC3)nc(-n3c(C(F)F)nc4ccccc43)n2)CC1)[C@H]1CCCN1 has IC50 strictly beneath 900 nM.
[reply] Not satisfied

[ask] Dear reviewer, please state whether O=C([C@H]1CCCCN1)N1CCN(c2nc(N3CCOCC3)nc(-n3c(C(F)F)nc4ccccc43)n2)CC1 has IC50 strictly beneath 900 nM.
[reply] Not satisfied

[ask] Dear reviewer, please state whether NC(=O)CNC(=O)[C@@H]1CCCN(c2nc(N3CCOCC3)nc(-n3c(C(F)F)nc4ccccc43)n2)C1 has IC50 strictly beneath 900 nM.
[reply] Satisfied

====

Target: Phosphatidylinositol 4,5-bisphosphate 3-kinase catalytic subunit delta isoform (Homo sapiens)
Sequence (O00329 whole entry): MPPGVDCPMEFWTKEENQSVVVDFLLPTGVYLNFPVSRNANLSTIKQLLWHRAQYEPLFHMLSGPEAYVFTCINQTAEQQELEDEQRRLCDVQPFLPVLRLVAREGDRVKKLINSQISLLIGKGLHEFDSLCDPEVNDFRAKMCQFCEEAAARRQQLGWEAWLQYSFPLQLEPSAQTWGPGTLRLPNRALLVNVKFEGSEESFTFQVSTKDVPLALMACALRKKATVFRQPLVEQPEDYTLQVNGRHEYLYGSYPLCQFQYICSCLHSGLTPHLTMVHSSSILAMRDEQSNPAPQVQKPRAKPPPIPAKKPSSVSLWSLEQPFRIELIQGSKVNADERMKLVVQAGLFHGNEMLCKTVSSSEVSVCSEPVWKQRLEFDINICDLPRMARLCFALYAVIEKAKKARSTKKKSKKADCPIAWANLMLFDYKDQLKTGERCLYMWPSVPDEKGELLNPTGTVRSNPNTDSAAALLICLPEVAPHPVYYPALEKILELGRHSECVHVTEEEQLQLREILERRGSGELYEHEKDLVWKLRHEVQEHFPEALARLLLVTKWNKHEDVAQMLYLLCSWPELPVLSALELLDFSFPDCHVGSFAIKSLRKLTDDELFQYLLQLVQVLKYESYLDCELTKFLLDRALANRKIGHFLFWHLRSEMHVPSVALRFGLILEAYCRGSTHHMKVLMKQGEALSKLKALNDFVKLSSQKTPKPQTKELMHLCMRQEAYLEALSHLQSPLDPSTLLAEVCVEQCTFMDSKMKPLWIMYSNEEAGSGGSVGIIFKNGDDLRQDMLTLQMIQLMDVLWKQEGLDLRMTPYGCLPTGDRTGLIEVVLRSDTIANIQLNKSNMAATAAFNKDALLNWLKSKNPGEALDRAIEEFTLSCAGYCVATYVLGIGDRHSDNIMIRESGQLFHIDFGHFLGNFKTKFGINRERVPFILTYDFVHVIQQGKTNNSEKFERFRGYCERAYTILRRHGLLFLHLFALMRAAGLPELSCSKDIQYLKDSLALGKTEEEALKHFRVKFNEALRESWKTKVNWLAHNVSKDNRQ
Assay: Inhibition of PI3Kdelta (unknown origin) expressed in baculovirus expression system by kinase-glo luminescence assay
test_readout: pIC50
One number for each entry, as −log10 of the molar value.

Below are worked cases with known answers.
N[C@H]1CC[C@@H](C(=O)N2CCN(c3nc(N4CCOCC4)nc(-n4c(C(F)F)nc5ccccc54)n3)CC2)CC1    6.84
C[C@@H](NC(=O)C1CCN(c2nc(N3CCOCC3)nc(-n3c(C(F)F)nc4ccccc43)n2)CC1)C(N)=O    7.36
O=C(CN1CCN(c2nc(N3CCOCC3)nc(-n3c(C(F)F)nc4ccccc43)n2)CC1)[C@H]1CCCN1    7.28
O=C(O)[C@H]1CCCN(c2nc(N3CCOCC3)nc(-n3c(C(F)F)nc4ccccc43)n2)C1    7.38
O=C([C@H]1CCCCN1)N1CCN(c2nc(N3CCOCC3)nc(-n3c(C(F)F)nc4ccccc43)n2)CC1    7.30
NC(=O)CNC(=O)[C@H]1CCCN(c2nc(N3CCOCC3)nc(-n3c(C(F)F)nc4ccccc43)n2)C1    7.47

Give one value of pIC50 per listed compound.
1. NC(=O)CNC(=O)C1CCN(c2nc(N3CCOCC3)nc(-n3c(C(F)F)nc4ccccc43)n2)CC1
2. NC(=O)[C@H](Cc1ccccc1)NC(=O)C1CCN(c2nc(N3CCOCC3)nc(-n3c(C(F)F)nc4ccccc43)n2)CC1
3. C[C@H](NC(=O)C1CCN(c2nc(N3CCOCC3)nc(-n3c(C(F)F)nc4ccccc43)n2)CC1)C(N)=O

[reply]
1. 7.18
2. 7.36
3. 7.40
